Target: T1, rhVEGFR-2 (human, UniProt P35968 20-764, limits assumed)
T1 construct: Immobilised on the carboxymethylated dextran chip for SPR; also called recombinant human VEGFR-2; VEGF receptor-2
T1 sequence (P35968 20-764 limits assumed): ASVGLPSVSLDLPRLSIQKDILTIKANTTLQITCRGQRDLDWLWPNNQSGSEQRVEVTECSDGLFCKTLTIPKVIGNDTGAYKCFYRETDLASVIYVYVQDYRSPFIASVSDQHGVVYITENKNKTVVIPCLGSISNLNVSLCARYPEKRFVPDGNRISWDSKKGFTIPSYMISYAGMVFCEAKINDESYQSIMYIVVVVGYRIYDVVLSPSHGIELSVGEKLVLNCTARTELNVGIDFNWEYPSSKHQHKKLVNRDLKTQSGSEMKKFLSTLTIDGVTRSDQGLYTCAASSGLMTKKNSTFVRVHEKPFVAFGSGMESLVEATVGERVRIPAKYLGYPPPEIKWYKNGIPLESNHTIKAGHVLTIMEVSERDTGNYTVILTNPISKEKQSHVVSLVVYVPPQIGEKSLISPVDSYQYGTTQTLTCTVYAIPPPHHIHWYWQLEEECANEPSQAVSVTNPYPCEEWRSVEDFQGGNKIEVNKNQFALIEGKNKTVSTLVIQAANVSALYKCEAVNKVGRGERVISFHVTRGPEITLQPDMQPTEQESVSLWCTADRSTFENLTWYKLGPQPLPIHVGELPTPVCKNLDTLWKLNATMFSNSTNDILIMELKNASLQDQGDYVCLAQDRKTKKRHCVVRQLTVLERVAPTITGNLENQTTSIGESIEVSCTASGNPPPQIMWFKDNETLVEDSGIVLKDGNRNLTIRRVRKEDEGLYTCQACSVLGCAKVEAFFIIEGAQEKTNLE
Assay: SPR (BIAcore), rhVEGFR-2 immobilised on the chip, RLYE injected
Experimental: Binding dynamics and affinity of RLYE to rhVEGFR-2 were evaluated with BIAcore AB (Sweden). […] Various concentrations of an RLYE solution was injected over the rhVEGFR-2-fixed center chip with a flow rate of 25 μl/min, and binding and non-binding characteristics between RLYE and the rhVEGFR-2 were analyzed. The peptide bonds were measured in arbitrary response units, and after the injection of each sample (120 sec), the HBS-EP buffer was passed over a sensor surface to monitor dissociation. […]
RECORDED_ENDPOINT: pKd
The quantity pKd is defined as the negative base-10 logarithm of the molar concentration.

Ask: GET /values?readout=pKd&item= RLYE (Unlabelled synthetic tetrapeptide, analyte in the SPR assay and used in the cell assays) [RLYE peptide (SEQ ID NO: 2)]
Result: 5.05
